Source listed as PubChem BioAssay (NCI).

# System: HT29 colon
# TEST SUMMARY: NCI tumour cell line growth inhibition, 48 h
MEASURED QUANTITY: TGI

{"columns": ["COMPOUND", "TGI"],
 "data": [
  ["Cn1cccc1-c1cc(-c2ccc(Br)cc2)[nH]c(=O)c1C#N", "> 100 µM"]
]}

Asked: Need TGI, item OC1CSc2nc3ccccc3n2C1 (configuration not stated)
Given back: > 100 µM

Asked: Look up TGI for this compound: CCN1C(=O)N(CC)C2C1NN=c1s/c(=C\c3ccccn3)c(=O)n12 (configuration not stated)
Given back: > 100 µM

====

# Tested on: OVCAR-3 ovarian
# TEST SUMMARY: NCI tumour cell line growth inhibition, 48 h
MEASURED QUANTITY: GI50

Here's what some known entries look like.
{"columns": ["COMPOUND", "TARGET OF ASSAY", "MEASURED QUANTITY", "RECORDED RESULT"],
 "data": [
  ["C=C1c2ccoc2C[C@H]2[C@H]1CC[C@@]1(O)[C@@](C)(C(=O)OC)CCC[C@]21C", "OVCAR-3 ovarian", "GI50", "17.4 µM"],
  ["Cc1ccc(-c2csc(NC(=O)N3CCN(c4cc5c(cc4F)c(=O)c(C(=O)O)cn5C4CC4)CC3)n2)cc1", "OVCAR-3 ovarian", "GI50", "0.492 µM"],
  ["Cc1nn(C)c(COc2ccc(N3CCN(S(=O)(=O)N(C)C)CC3)cc2)c1-c1cccc2c(CCCOc3cccc4ccccc34)c(C(=O)O)n(CCN3CCOCC3)c12", "OVCAR-3 ovarian", "GI50", "2.72 µM"]
]}

Asked: Recorded GI50 of CCC[CH2][Sn]1([CH2]CCC)[O]C2C(CO)OC(n3ccc(N)nc3=O)C2[O]1 (centres undefined) , please.
Given back: 1.58 µM

====

# Tested on: PC-3 prostate
# TEST SUMMARY: NCI tumour cell line growth inhibition, 48 h
MEASURED QUANTITY: TGI

{"columns": ["MOLECULE", "MEASURED QUANTITY", "RECORDED RESULT"],
 "data": [
  ["Cc1ccc(Nc2nc3c(=O)n(C)c(=O)n(C)c3nc2Nc2ccc(C)cc2)cc1", "TGI", "27.9 µM"],
  ["COc1ccccc1C1c2cc3c(cc2OC(N2CCOCC2)C1C)OCO3 (stereo not drawn)", "TGI", "71.9 µM"],
  ["CN(C)C(=O)c1cnc2oc3ccc(O)cc3c2c1-c1ccccc1", "TGI", "> 25 µM"],
  ["CCOP(=O)(OCC)OC1c2[nH]cc(C(=O)OCc3ccccc3)c2-c2cc(C(=O)OC)[nH]c2C1OC (stereo not drawn)", "TGI", "> 100 µM"],
  ["c1ccc2[nH]c(-c3cc(-c4ccc5c(c4)OCO5)n[nH]3)nc2c1", "TGI", "17.7 µM"],
  ["COc1ccc(-c2c(C#N)c(S)n(NS(=O)(=O)c3ccccc3)c(=O)c2C#N)cc1", "TGI", "> 100 µM"],
  ["N#Cc1c(O)c(/C=N/c2ncccn2)c(=O)n2c1[nH]c1ccccc12", "TGI", "> 100 µM"],
  ["c1ccc2c(c1)OC(N1CCCC1)c1cnc(N3CCOCC3)nc1-2 (stereo not drawn)", "TGI", "> 100 µM"],
  ["C#CC1(O)CCCCCCCCC2(CCCCCCCC1)OCCO2", "TGI", "25.9 µM"],
  ["O=[N+]([O-])c1ccc(N2CCC(CCCC3CCN(c4ccc([N+](=O)[O-])cc4[N+](=O)[O-])CC3)CC2)c([N+](=O)[O-])c1", "TGI", "33.7 µM"]
]}

Asked: I have this molecule here, O=C1c2ccc3c4c(ccc(c24)C(=O)N1CCCNCc1ccccc1Cl)C(=O)N(CCCNCc1ccccc1Cl)C3=O , and I need its recorded TGI.
Given back: 1.56 µM

Asked: Reported TGI, molecule BrCC[N+]12CC[N+](CCBr)(CC1)C2 : ____
Given back: > 100 µM

Asked: I am curious: what TGI value has been reported for CC(=O)OC(C)(C)CCC(=O)[C@](C)(O)[C@H]1[C@H](O)C[C@@]2(C)[C@@H]3CCc4c(cc(OC5OC(CO)C(O)C(O)C5O)c(O)c4C)C3(C)C(=O)C[C@]12C (stereo partly drawn) ?
Given back: > 100 µM

Asked: # lookup: TGI of CSc1nc2c(c(=O)[nH]1)N=C(c1ccccc1)CC(c1ccccc1)N2 (stereo not drawn)
Given back: > 100 µM

Asked: # query: TGI of entry CCOC(=O)c1nc2ccc(C(F)(F)F)cc2nc1Oc1ccc(C(=O)OC)cc1
Given back: > 100 µM

Asked: Recorded TGI for Cc1cccc(N/C(Sc2ccccc2)=C(/C(Cl)=C(Cl)Cl)[N+](=O)[O-])c1 , please?
Given back: > 100 µM

Asked: Param item = Fc1ccc(C(OCCN2CC3CCC(C2)N3CCCc2ccccc2)c2ccc(F)cc2)cc1 ; retrieve measured TGI.
Given back: 10.4 µM

Asked: Returns the measured TGI for the input molecule. Input: O=C(OCCNC(=O)N1CC1)OCCNC(=O)N1CC1
Given back: > 10 µM

====

# Tested on: HCC-2998 colon
# TEST SUMMARY: NCI tumour cell line growth inhibition, 48 h
MEASURED QUANTITY: TGI

{"columns": ["COMPOUND", "TGI"],
 "data": [
  ["O=C(Nc1ccc(Oc2cccc(F)c2)c(Cl)c1)c1cnccn1", "> 50 µM"],
  ["Cc1ccc(C(=O)N/N=C(\\N=Nc2ccc(C(=O)O)cc2)c2ccc(N(CCC#N)CCC#N)cc2C)cc1", "> 100 µM"],
  ["CCN1CN(c2ccccc2)C2(CCN(CC(CC3OCCO3)c3ccc(F)cc3)CC2)C1=O (stereo unspecified)", "46.1 µM"]
]}

Asked: Fill in: TGI of C#CC1(O)CCCCCCCCC2(CCCCCCCC1)OCCO2 is ___
Given back: 29.5 µM

Asked: Please report the recorded TGI for NCCN.O=C([O-])CN1CCOCC1.[OH-].[Pt+4] .
Given back: > 100 µM

Asked: Name the recorded TGI for C#CCNCCN1C(=O)c2ccc3c4c(ccc(c24)C1=O)C(=O)N(CCNCC#C)C3=O .
Given back: 10 µM

Asked: What value of TGI has been recorded for this entry: Cc1cn2c(/C=C3/C(=O)Nc4ccc(O)cc43)c(C)nc2s1
Given back: 5.01 µM

Asked: Look at this compound and give its reported TGI. Cn1cc(-c2csc(-c3cn(CCCN4CCCCC4)c4ccccc34)n2)c2cccnc21
Given back: 3.23 µM

Asked: What value of TGI has been reported for the following compound? CC(C)CCNCC(O)Cn1c2ccccc2c2ccccc21 (stereo unspecified)
Given back: 4.22 µM

Asked: Suppose we examine the compound Cn1cccc1-c1cc(-c2ccc(Br)cc2)[nH]c(=O)c1C#N ; what TGI value has been reported?
Given back: > 100 µM

Asked: Requested field: TGI. Item: O=CN1CCN(C(=O)c2ccc(Cl)c(Cl)c2)C1=S
Given back: 32.7 µM

Asked: Entry O=C(O)c1nc(-c2ccc(Cl)c(Cl)c2)nc2ccc(Cl)cc12 has what TGI?
Given back: > 100 µM

Asked: Any idea what TGI was measured for CCN1C(=O)N(CC)C2C1NN=c1s/c(=C\c3ccccn3)c(=O)n12 (stereo unspecified) ?
Given back: > 100 µM

Asked: Name the reported TGI value associated with the compound CC1=C(C(=O)N[C@@H](CC(C)C)C(=O)O)N2C(=O)[C@@H](NC(=O)C(N)c3ccccc3)[C@H]2SC1 (stereo partly specified)
Given back: > 100 µM

Asked: Any idea what TGI was measured for COC(=O)CCC(NC(=O)OC(C)(C)C)C(=O)NC(Cc1ccc(NC(=O)CCCC(C)=O)cc1)C(=O)NC(CCC(=O)OC)C(=O)OC (stereo unspecified) ?
Given back: > 100 µM

Asked: # input compound: Cc1ccc(C(=O)NC2CCC2)cc1-c1ccc(C(=O)NCC2CC2)cc1 ; wanted: its TGI
Given back: > 25 µM

Asked: Sample O=c1cc(-c2ccccc2)[nH]c2nccn12 — what was its TGI?
Given back: > 10 µM

====

# Tested on: CAKI-1 renal
# TEST SUMMARY: NCI tumour cell line growth inhibition, 48 h
MEASURED QUANTITY: GI50

These recorded examples may help you get a feel for the data.
{"columns": ["COMPOUND", "GI50"],
 "data": [
  ["CCOC(=O)c1cc2c(n1Cc1cc(OC)c(OC)c(OC)c1)-c1oncc1CCC2", "0.105 µM"],
  ["C[C@]12CC[C@@H]3c4ccc(O)cc4CC[C@H]3[C@@H]1Cc1cnc(N)nc12", "23.8 µM"],
  ["C#CCNCCN1C(=O)c2ccc3c4c(ccc(c24)C1=O)C(=O)N(CCNCC#C)C3=O", "5.05 µM"],
  ["CN(C)C(=O)c1cnc2oc3ccc(O)cc3c2c1-c1ccccc1", "> 25 µM"],
  ["O=C1c2ccc3c4c(ccc(c24)C(=O)N1CCCNCc1ccccc1Cl)C(=O)N(CCCNCc1ccccc1Cl)C3=O", "0.317 µM"],
  ["CC(=O)[O][Sn]([CH2]c1ccccc1)([CH2]c1ccccc1)[CH2]c1ccccc1", "> 10 µM"],
  ["COc1ccc(C2=C(c3ccc(OC)c(OC)c3)C(=O)N3CCCC3C2)cc1 (configuration not stated)", "39.4 µM"],
  ["C=C1CC[C@@H]2[C@](C)(COC(C)=O)[C@H](OC(C)=O)CC[C@@]2(C)[C@@H]1CC(Nc1ccc(S(=O)(=O)Nc2ccc(Cl)nn2)cc1)C1=CCOC1=O (some centres not stated)", "2.28 µM"],
  ["O=S(=O)(c1cccc2c(I)cccc12)N1CCCNCC1", "19.2 µM"],
  ["COc1ccc(Cl)c(Nc2nc3ccccc3nc2NS(=O)(=O)c2cccc(NC(=O)C(C)(C)N)c2)c1", "6.49 µM"]
]}

Asked: Entry N#Cc1nc2c(S(=O)(=O)c3ccc(Cl)cc3)c(N)n(CCCN3CCOCC3)c2nc1C#N : reported GI50 = ?
Given back: 2.64 µM

Asked: Looking for the measured GI50 of COc1cc(OC)c2[nH]c3c(O)c(-c4c(C)cc5c([nH]c6c(OC)cc(OC)cc65)c4O)c(C)cc3c2c1 , can you help?
Given back: 9.89 µM

Asked: Entry O=C1C(SCCO)=C(SCCO)C(=O)N1c1ccc(-c2ccccc2)cc1 has what GI50?
Given back: 0.644 µM
